System: GP2D (KRAS G12D) cells
Assay: 2D cell viability assay (CellTiter-Glo)
Format: cell-based
Details: GP2d, 96 h, 4 days
Measurement Type: pEC50
Convention used: pEC50 is expressed as -log10 of the molar concentration.

In the examples that follow, each entry is paired with its recorded pEC50.
{"Compound": "C#Cc1c(F)ccc2cccc(-c3nc4c5c(nc(OC[C@]67CCCN6C[C@H](OC(C(F)(F)F)(C(F)(F)F)C(F)(F)F)C7)nc5c3F)N3C[C@H]5CC[C@H](N5)[C@H]3CC4)c12", "pEC50": 7.00}
{"Compound": "C#Cc1c(F)ccc2cc(O)cc(-c3nc4c5c(nc(OC[C@@]67CCCN6C[C@H](OC(C(F)(F)F)(C(F)(F)F)C(F)(F)F)CC7)nc5c3F)N3C[C@H]5CC[C@H](N5)[C@H]3CO4)c12", "pEC50": 7.30}
{"Compound": "Fc1ccc2cccc(-c3nc4c5c(nc(OC[C@@]67CCCN6C[C@H](F)C7)nc5c3F)N3C[C@H]5CC[C@H](N5)[C@H]3CC4)c2c1OC(F)(F)F", "pEC50": 6.35}
{"Compound": "C#Cc1c(F)ccc2cccc(-c3nc4c5c(nc(OC[C@@]67CCCN6C[C@H](F)C7)nc5c3F)N3C[C@H]5CC[C@H](N5)[C@H]3C[C@H]4O)c12", "pEC50": 7.89}
{"Compound": "C#Cc1c(F)ccc2cc(O)cc(-c3nc4c5c(nc(OCC6(CN7CCC(C(F)(F)F)CC7)CC6)nc5c3F)N3C[C@H]5CC[C@H](N5)[C@H]3CC4)c12", "pEC50": 9.22}

Give the reported pEC50 for C#Cc1c(F)ccc2cccc(-c3nc4c5c(nc(OC[C@@]67CCCN6C[C@H](F)C7)nc5c3F)N3C[C@H]5CC[C@H](N5)[C@H]3C[C@@H]4CC)c12 (system: GP2D (KRAS G12D) cells).
7.92

# value lookup — system GP2D (KRAS G12D) cells, readout pEC50, item C#Cc1c(F)ccc2cc(O)cc(-c3nc4c5c(nc(OC[C@@]67CCCN6C[C@H](F)C7)nc5c3F)N3C[C@H]5CC[C@H](N5)C3C[C@@H]4C)c12 (stereo in doubt)
9.22

* * *

pIC50 for assorted molecules
Biological target: GDP-loaded KRAS G12D (Homo sapiens (Human), UniProt P01116, G12D)
Sequence (P01116-2 other isoform, or with tags, fused parts or gaps G12D): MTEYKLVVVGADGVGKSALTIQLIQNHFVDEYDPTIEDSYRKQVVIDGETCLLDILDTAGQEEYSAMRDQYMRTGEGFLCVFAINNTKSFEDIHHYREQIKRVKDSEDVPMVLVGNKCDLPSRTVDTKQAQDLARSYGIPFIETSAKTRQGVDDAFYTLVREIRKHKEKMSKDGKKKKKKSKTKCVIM
Test: KRAS G12D (GDP) biochemical assay (TR-FRET probe displacement)
Settings: 2 hours
# reply with the number alone; pIC50 is -log10 of concentration in mol/L

{"Smiles Notation": "C#Cc1c(F)ccc2cc(O)cc(-c3nc4c5c(nc(OC[C@@]67CCCN6C[C@H](F)C7)nc5c3F)N3C[C@H]5CC[C@H](N5)[C@H]3[C@@H](C)O4)c12", "Target Or Test System": "GDP-loaded KRAS G12D (Homo sapiens (Human), UniProt P01116, G12D)", "Measurement Type": "pIC50", "Reported Result": 7.59}

Any idea what pIC50 came out for CCc1c(F)ccc2cc(O)cc(-c3cc4c5c(nc(OC[C@@]67CCCN6C[C@H](F)C7)nc5c3F)N3C[C@H]5CC[C@H](N5)[C@H]3CC4)c12 on GDP-loaded KRAS G12D (Homo sapiens (Human), UniProt P01116, G12D)?
9.70

Give pIC50 (GDP-loaded KRAS G12D (Homo sapiens (Human), UniProt P01116, G12D)) of the following molecule: Oc1cc(-c2nc3c4c(nc(OC[C@@]56CCCN5C[C@H](F)C6)nc4c2F)N2C[C@H]4CC[C@H](N4)[C@H]2CC3)c2c(F)c(F)ccc2c1
9.15

Request body: readout pIC50, system GDP-loaded KRAS G12D (Homo sapiens (Human), UniProt P01116, G12D), query C#Cc1c(F)ccc2cc(O)cc(-c3cc4c5c(nc(OC[C@@]67CCCN6C[C@H](F)C7)nc5c3F)N3C[C@H]5CC[C@H](N5)[C@H]3CC4)c12 . Return the value.
10.00

What is its pIC50 for GDP-loaded KRAS G12D (Homo sapiens (Human), UniProt P01116, G12D)? Entry: C#Cc1c(F)ccc2cc(O)cc(-c3nc4c5c(nc(OCC6(CN7CCC[Si](C)(C)CC7)CC6)nc5c3F)N3C[C@H]5CC[C@H](N5)[C@H]3CC4)c12
9.70
